Tested on: male CD1 mice on high-cholesterol diet
assayNotes: Plasma total cholesterol levels in male CD1 mice on high-cholesterol diet
Assay type: in vivo
condition: plasma; oral twice a day for 17 days and one time on day 18; blood 8 h from last treatment, post-absorptive; monacolin K 2, fish oil 200, hexacosanol 25, resveratrol 5, Coenzyme Q10 50, vitamin B6 0.3, vitamin B12 0.25, L-carnitine 20 mg/kg
Can you tell me Total-cholesterol (mg/dL) Mean values ± S.E. for the items I'm about to list?
Give bare numbers, in mg/dL.

Check out these entries, answers already filled in.
compound=Cc1ncc(CO)c(CO)c1O.Cl endpointresult=348.5
compound="Oc1ccc(/C=C/c2cc(O)cc(O)c2)cc1 [Resveratrol, trans-3,4′,5-trihydroxystilbene]" endpointresult=352.1
compound=CCCCCCCCCCCCCCCCCCCCCCCCCCO endpointresult=307.2
compound=CC[C@H](C)C(=O)O[C@H]1C[C@@H](C)C=C2C=C[C@H](C)[C@H](CC[C@@H]3C[C@@H](O)CC(=O)O3)[C@H]21 endpointresult=289.7
compound=C[N+](C)(C)C[C@H](O)CC(=O)[O-] endpointresult=322.8

Lookup result for COC1=C(OC)C(=O)C(C/C=C(\C)CC/C=C(\C)CC/C=C(\C)CC/C=C(\C)CC/C=C(\C)CC/C=C(\C)CC/C=C(\C)CC/C=C(\C)CC/C=C(\C)CCC=C(C)C)=C(C)C1=O ; measured Total-cholesterol (mg/dL) Mean values ± S.E.: 355.8

###

What HDL-cholesterol was measured for each of the following?
System: male CD1 mice on high-cholesterol diet
assayNotes: Plasma HDL-cholesterol levels in male CD1 mice on high-cholesterol diet
Format: in vivo
condition: plasma; mean values ± S.E.; oral twice a day for 17 days and one time on day 18; blood 8 h from last treatment, post-absorptive; monacolin K 2, fish oil 200, hexacosanol 25, resveratrol 5, Coenzyme Q10 50, vitamin B6 0.3, vitamin B12 0.25, L-carnitine 20 mg/kg
Give bare numbers, in mg/dL.

Use the examples below as a reference point.
molecule=CC[C@H](C)C(=O)O[C@H]1C[C@@H](C)C=C2C=C[C@H](C)[C@H](CC[C@@H]3C[C@@H](O)CC(=O)O3)[C@H]21 measuredquantity=HDL-cholesterol endpointresult=25.3
molecule=C[N+](C)(C)C[C@H](O)CC(=O)[O-] measuredquantity=HDL-cholesterol endpointresult=27.8
molecule=Cc1ncc(CO)c(CO)c1O.Cl measuredquantity=HDL-cholesterol endpointresult=24.1
molecule=COC1=C(OC)C(=O)C(C/C=C(\C)CC/C=C(\C)CC/C=C(\C)CC/C=C(\C)CC/C=C(\C)CC/C=C(\C)CC/C=C(\C)CC/C=C(\C)CC/C=C(\C)CCC=C(C)C)=C(C)C1=O measuredquantity=HDL-cholesterol endpointresult=23.9
molecule=CCCCCCCCCCCCCCCCCCCCCCCCCCO measuredquantity=HDL-cholesterol endpointresult=26.4

Now, please, on to the next molecule.
The molecule Oc1ccc(/C=C/c2cc(O)cc(O)c2)cc1 [Resveratrol, trans-3,4′,5-trihydroxystilbene] showed HDL-cholesterol equal to 23.7
